target: T1, EGFRvIII target antigen (SPR ligand) (UniProt P00533 25-645, limits assumed); experiment: SPR; antibody as analyte
T1 construct: also called EGFRvIII antigen
measuredMetric: pKd
Would you please state pKd, meaning minus log10 of the concentration in mol/L, as a bare number?

Below, 3 binders whose answers are already recorded.
>  <binder>
humanized antibody 40-2-H12 (98G2E9-VH6 + VL5) (scFv, the format in the SPR assay is not clearly stated) scFv: EVQLLESGGGLVQPGGSLKLSCAASGFTFSGYAMSWVRQTPEKGLEWVATITSGGSYTYYPDSVKGRFTISRDNAKNTLYLQMNSLRAEDTAMYYCARKDYGNYWFAYWGQGTLVTVSSGGGGSGGGGSGGGGSGGGGSDVVMTQSPLSLPVTLGDPASISCRSSQSLVHSDGNTYLHWYLQRPGQSPRLLIYKVSNRFSGVPDRFSGSGSGTDFTLKISRVEAEDVGVYFCSQTTQVPWTFGGGTKLEIK

>  <pKd>
6.99

$$$$
>  <binder>
humanized antibody 40-2-H10 (98G2E9-VH5 + VL6) (scFv, the format in the SPR assay is not clearly stated) scFv: EVQLLESGGGLVQPGGSLKLSCAASGFTFSGYAMSWVRQTPGKGLEWVATITSGGSYTYYPDSVKGRFTISRDNSKNTLYLQMNSLRAEDTAMYYCARKDYGNYWFAYWGQGTLVTVSSGGGGSGGGGSGGGGSGGGGSDVVMTQSPLSLPVTLGQQASISCRSSQSLVHSDGNTYLHWYLQKPGQSPKLLIYKVSNRFSGVPDRFSGSGSGTDFTLKISRVEAEDVGVYFCSQTTQVPWTFGGGTKLEIK

>  <pKd>
6.87

$$$$
>  <binder>
chimeric-VH + VL of clone 20-2-40-2 (98G2E9) (antibody, V domains shown, also called clone #40-2) VH: EVLLVESGGGLVKPGGSLKLSCAASGFTFSGYAMSWVRQTPEKRLEWVATITSGGSYTYYPDSVKGRFTISRDNAKNTLYLQMSSLRSEDTAMYYCARKDYGNYWFAYWGQGTLVTVSA VL: DVVMTQTPLSLPVSLGDQASISCRSSQSLVHSDGNTYLHWYLQKPGQSPKLLIYKVSNRFSGVPDRFSGSGSGTDFTLKISRVEAEDLGVYFCSQTTQVPWTFGGGTKLEIK

>  <pKd>
7.30

$$$$

Challenge: Data request, read-out pKd, for humanized antibody 40-2-H11 (98G2E9-VH5 + VL7) (scFv, the format in the SPR assay is not clearly stated) scFv: EVQLLESGGGLVQPGGSLKLSCAASGFTFSGYAMSWVRQTPGKGLEWVATITSGGSYTYYPDSVKGRFTISRDNSKNTLYLQMNSLRAEDTAMYYCARKDYGNYWFAYWGQGTLVTVSSGGGGSGGGGSGGGGSGGGGSDVVMTQSPLSLPVTLGDQASISCRSSQSLVHSDGNTYLHWYLQKPGQSPKLLIYKVSNRFSGVPDRFSGSGSGTDFTLKISRVEAEDVGVYFCSQTTQVPWTFGGGTKLEIK
Response given: 6.86

Challenge: Try humanized antibody 40-2-H9 (98G2E9-VH5 + VL5) (scFv, the format in the SPR assay is not clearly stated) scFv: EVQLLESGGGLVQPGGSLKLSCAASGFTFSGYAMSWVRQTPGKGLEWVATITSGGSYTYYPDSVKGRFTISRDNSKNTLYLQMNSLRAEDTAMYYCARKDYGNYWFAYWGQGTLVTVSSGGGGSGGGGSGGGGSGGGGSDVVMTQSPLSLPVTLGDPASISCRSSQSLVHSDGNTYLHWYLQRPGQSPRLLIYKVSNRFSGVPDRFSGSGSGTDFTLKISRVEAEDVGVYFCSQTTQVPWTFGGGTKLEIK next.
Response given: 6.95

Challenge: Try humanized antibody 40-2-H13 (98G2E9-VH6 + VL6) (scFv, the format in the SPR assay is not clearly stated) scFv: EVQLLESGGGLVQPGGSLKLSCAASGFTFSGYAMSWVRQTPEKGLEWVATITSGGSYTYYPDSVKGRFTISRDNAKNTLYLQMNSLRAEDTAMYYCARKDYGNYWFAYWGQGTLVTVSSGGGGSGGGGSGGGGSGGGGSDVVMTQSPLSLPVTLGQQASISCRSSQSLVHSDGNTYLHWYLQKPGQSPKLLIYKVSNRFSGVPDRFSGSGSGTDFTLKISRVEAEDVGVYFCSQTTQVPWTFGGGTKLEIK next.
Response given: 6.99
